Method Description: gradient 5% acetonitrile 3 min, to 50% in 2 min, to 85% in 15 min, held 3 min, 100 µL/min
Setup Conditions: column: Zorbax Extend-C18 2.1 x 50 mm; eluents: water / acetonitrile, 0.1% formic acid

# Compound, RP-LC retention time / s
measured = [
    ("CCC(CC)C(=O)N1CCN(Cc2nc3cc(C(=O)N4CCCC4)ccc3n2C)CC1", 598),
    ("CCN1C(=O)c2cccc3c(NC(=O)c4cccs4)ccc1c23", 731),
    ("O=S(=O)(c1cc(-c2nnc(C3CC3)o2)co1)N1CCN(c2ccccc2)CC1", 960),
    ("COc1ccc(C)cc1NC(=O)C1CCN(S(=O)(=O)c2ccc3c(c2)CCCC(=O)N3)CC1", 816),
    ("COc1ccc(C2C(C(=O)NC3CCCCCC3)CCC(=O)N2c2ccc(OC)cc2)cc1 (stereo not given)", 807),
    ("CC1=C(c2ccccc2)S(=O)(=O)N=C1N1CCC(NC(=O)COc2ccccc2)CC1", 841),
    ("O=C(Nc1ncc(Cc2ccc(Cl)cc2)s1)c1ccco1", 869),
    ("CCOc1ccc(CCNC(=O)c2cc(S(=O)(=O)N3CCCCC3)c(C)n2C)cc1OCC", 1010),
    ("CCCN(CC1CCOC1)C(=O)c1cc(F)cc(F)c1 (stereo not given)", 808),
    ("CC(C)CN1CCN(C(=O)c2ccc(-c3cccs3)nc2)CC1", 602),
]

====

Method Description: gradient 5% acetonitrile 3 min, to 50% in 2 min, to 85% in 15 min, held 3 min, 100 µL/min
Setup Conditions: column: Zorbax Extend-C18 2.1 x 50 mm; eluents: water / acetonitrile, 0.1% formic acid
Metric Name: RP-LC retention time (s)

# Molecule, Readout Value
rows = [
    ("O=C(O)c1ccccc1C(=O)Nc1ccccc1[N+](=O)[O-]", 782),
    ("COc1ccc(NC(=O)Cn2nc3cc(-c4ccccc4)nc(C)n3c2=O)cc1F", 914),
    ("Cc1cccc(-c2nocc2CCC(=O)O)c1", 758),
    ("Clc1ccc(-c2ccc(CNCC3CCNCC3)o2)c(Cl)c1", 611),
    ("O=C(Cc1nnc(-c2ccc3ncccc3c2)o1)NC1CCCCCC1", 807),
]

====

In this section, each of the compounds is paired with its reported RP-LC retention time.
Method Description: gradient 5% acetonitrile 3 min, to 50% in 2 min, to 85% in 15 min, held 3 min, 100 µL/min
Setup Conditions: column: Zorbax Extend-C18 2.1 x 50 mm; eluents: water / acetonitrile, 0.1% formic acid
Metric Name: RP-LC retention time (s)

# Compound, Readout Value
records = [
    ("CCOC(=O)c1c(C)oc2ncnc(NCC3CCN(Cc4ccc(F)cc4)CC3)c12", 698),
    ("O=C(Cn1cnc2c(nnn2-c2ccc(Br)cc2)c1=O)NCc1ccco1", 776),
    ("Cc1ccc2cccc(OC(=O)N3CCCCCC3)c2n1", 789),
    ("CC(C)NC(=O)C1CCCN(c2nc3ncn(CC(=O)NCc4ccccc4)c(=O)c3s2)C1 (stereo not drawn)", 672),
    ("Cc1[nH]c2ccccc2c1C(=O)C(=O)Nc1ccccc1", 816),
    ("COCCn1cc(CCNC(=O)Nc2cc(Cl)ccc2C)c2cccnc21", 795),
    ("Cc1ccc(Cn2c(N3CCC(C(=O)NC4CC4)CC3)nc3ccsc3c2=O)cc1", 783),
    ("O=S(=O)(c1cccn2c(SCc3ccccc3)nnc12)N1CCN(c2ccc(F)cc2)CC1", 958),
    ("COc1ccc(-c2cc(C(F)(F)F)n3ncc(C(=O)NCc4cn(C)nc4C)c3n2)cc1OC", 780),
    ("CC(C)c1ccc(-c2ccnc3c(C(=O)NCCCc4ccco4)cnn23)cc1", 1180),
    ("CCN(C(=O)c1cc2c(=O)n(CC)c3ccccc3n2n1)c1ccc(F)cc1", 945),
    ("CC(C)n1nnc2cc(C(=O)N(C)CC(=O)Nc3ccc(F)c(Cl)c3)ccc21", 790),
    ("COCc1nc2cccnc2n1C1CCN(C(=O)Nc2cc(OC)ccc2OC)CC1", 696),
    ("O=C(N1CCC(n2nc(-c3ccsc3)ccc2=O)CC1)C1(c2ccccc2)CC1", 869),
    ("Cc1nnc(-c2ccc3ccn(CC(=O)N4CCCc5ccccc54)c3c2)o1", 814),
    ("c1cc(-c2noc(-c3n[nH]c4c3CCCC4)n2)cc(-c2ccn[nH]2)c1", 836),
    ("Cc1nn(-c2nc(-c3ccc(F)cc3)cs2)c(C)c1CC(=O)Nc1cccc(Cl)c1", 772),
    ("Cc1ccccc1-c1nnc(CSc2nnc(NC(=O)c3ccc(C(F)(F)F)cc3)s2)o1", 1050),
]

====

Method Description: gradient 5% acetonitrile 3 min, to 50% in 2 min, to 85% in 15 min, held 3 min, 100 µL/min
Setup Conditions: column: Zorbax Extend-C18 2.1 x 50 mm; eluents: water / acetonitrile, 0.1% formic acid

# Molecule, Units, RP-LC retention time
records = [
    ("CCNS(=O)(=O)c1cccc(-c2nc(-c3ccc(C)cc3)no2)c1", "s", 1100),
    ("Cc1noc(C)c1CCC(=O)NCCOc1cccc2cccnc12", "s", 548),
    ("COc1ccc(NC(=O)C2c3cc(OC)c(OC)cc3C(=O)N(C)C2c2cccs2)c(OC)c1 (stereo unspecified)", "s", 846),
    ("Nc1ncnc2c1ncn2C1CCCC1", "s", 595),
    ("CCOC(=O)CNC(=O)N1CCC(n2c(-c3ccc(F)cc3)nc3cccnc32)C1 (stereo unspecified)", "s", 641),
    ("COc1cc(OC)cc(N2C(=O)C3N=NN(Cc4nc(-c5cccc(Cl)c5)no4)C3C2=O)c1 (stereo unspecified)", "s", 1020),
    ("CCc1ccc(NC(=O)c2ccc(=O)n(CCN3CCOCC3)c2)cc1", "s", 637),
    ("CC(C)(C)c1cc(C(N)=O)n[nH]1", "s", 602),
    ("Cc1noc([C@@H]2CC(F)(F)CN2C(=O)c2ccoc2)n1", "s", 703),
    ("COc1cccc(CNC(=O)C(=O)NCC2CCN(C(=O)NC(C)(C)C)CC2)c1", "s", 719),
    ("COCCN1CC(CO)C2(CCN(Cc3ccc(Cl)c(F)c3)CC2)C1 (stereo unspecified)", "s", 555),
]

====

In this section, each of the compounds is paired with its reported RP-LC retention time.
Method Description: gradient 5% acetonitrile 3 min, to 50% in 2 min, to 85% in 15 min, held 3 min, 100 µL/min
Setup Conditions: column: Zorbax Extend-C18 2.1 x 50 mm; eluents: water / acetonitrile, 0.1% formic acid
Metric Name: RP-LC retention time (s)

# Compound, Metric Name, Units, Readout Value
rows = [
    ("Cc1ccc(S(=O)(=O)N2CCCN(c3ccc(=O)n(-c4ccccc4)n3)CC2)cc1", "RP-LC retention time", "s", 835),
    ("CCc1sc(NC(=O)c2cc(OC)cc(OC)c2)nc1-c1ccccc1", "RP-LC retention time", "s", 1200),
    ("Cc1ccc(-c2csc(-n3nc(C)c(CC(=O)N4CCCC4)c3C)n2)cc1", "RP-LC retention time", "s", 1090),
    ("CNC(=O)c1cc(-c2ccc(F)cc2)n[nH]1", "RP-LC retention time", "s", 659),
    ("COc1cc([C@@H]2c3cc4c(cc3[C@H](O)[C@@H](CO)[C@@H]2C(=O)N2CCCC2)OCO4)cc(OC)c1OC", "RP-LC retention time", "s", 641),
    ("CCC(C)NC(=O)N1CC(Oc2ccc(-c3nc(-c4ccccc4)no3)cc2)C1 (stereo not drawn)", "RP-LC retention time", "s", 712),
    ("Cc1cc(C)cc(NC(=O)NCc2ccnc(N3CCSCC3)c2)c1", "RP-LC retention time", "s", 660),
    ("O=C(C1CCCN(c2ncnc3c2nc2n3CCCCC2)C1)N1CCN(Cc2ccccc2)CC1 (stereo not drawn)", "RP-LC retention time", "s", 615),
    ("CC(C)c1ccc(-n2nc(N3CCN(C(=O)c4ccc5c(c4)OCO5)CC3)ccc2=O)cc1", "RP-LC retention time", "s", 914),
    ("C=CCn1c(=O)c2ccccc2n(Cc2nc(-c3ccc(CC)cc3)no2)c1=O", "RP-LC retention time", "s", 1160),
    ("CCOc1ccc(-c2cc(=O)n(CCCC(=O)Nc3cccc(SC)c3)cn2)cc1", "RP-LC retention time", "s", 847),
    ("CCn1cc(-c2nc(C)c(C(=O)Nc3cccc(C(=O)OC)c3)s2)c2cccnc21", "RP-LC retention time", "s", 993),
    ("CNC(=O)C1CCCN(c2nc3ncn(CC(=O)Nc4cc(F)ccc4C)c(=O)c3s2)C1 (stereo not drawn)", "RP-LC retention time", "s", 644),
    ("CC(C)N1C(=O)C(CC(=O)Nc2cccc(OC(F)(F)F)c2)=C2CCCCC21 (stereo not drawn)", "RP-LC retention time", "s", 1080),
    ("CCNC(=O)NCc1nc(-c2ccc(Cl)cc2)no1", "RP-LC retention time", "s", 752),
    ("CC1(C)CC(=O)C2=C(C1)Nc1ccccc1N(CC(=O)NCc1cccnc1)C2c1ccco1 (stereo not drawn)", "RP-LC retention time", "s", 614),
    ("CCN1CCN(CC2CCN(S(=O)(=O)Cc3ccc(Cl)cc3)CC2)CC1", "RP-LC retention time", "s", 610),
    ("CCOC(=O)C1CCC(CNC(=O)Nc2cc3c(cc2N2CCCCC2)n(C)c(=O)n3C)CC1 (stereo not drawn)", "RP-LC retention time", "s", 689),
    ("CCc1cc(=O)n(CC(=O)N2CCCc3ccccc32)c(-n2nc(C)cc2C)n1", "RP-LC retention time", "s", 993),
    ("Cc1ccc(NC(=O)c2cc(C3CC3)n3nccc3n2)c(F)c1", "RP-LC retention time", "s", 1150),
    ("CC1CCN(S(=O)(=O)c2ccc3nn(C)c(=O)n3c2)CC1", "RP-LC retention time", "s", 744),
    ("CCc1ccc(C(=O)c2cnc3ccc(OC)cc3c2N2CCN(C)CC2)cc1", "RP-LC retention time", "s", 614),
    ("CCC1Oc2ccc(S(=O)(=O)N3CCC(C(=O)Nc4ccc(C)c(C)c4)CC3)cc2NC1=O (stereo not drawn)", "RP-LC retention time", "s", 930),
    ("CC1CCN(S(=O)(=O)c2nn(C)cc2C(=O)O)CC1", "RP-LC retention time", "s", 707),
    ("CN(C)CC1(O)CCC2(CCN(C(=O)CCC3CCCC3)CC2)CC1", "RP-LC retention time", "s", 639),
    ("CCc1nc(-c2csc(S(=O)(=O)N3CCC(C(=O)NC(C)C)CC3)c2)no1", "RP-LC retention time", "s", 812),
    ("Cc1ccc(-n2nc3c(=O)n(CCCC(=O)NC4CCCC4)nc(C)c3c2C)cc1", "RP-LC retention time", "s", 797),
    ("COc1ccc(-c2nc(C3CC(=O)N(c4ccc(C)cc4)C3)no2)c(C)c1 (stereo not drawn)", "RP-LC retention time", "s", 1090),
    ("CCCCc1nc(SCC(=O)Nc2nc(-c3ccc(Br)cc3)cs2)n[nH]1", "RP-LC retention time", "s", 1050),
    ("COc1ccc(S(=O)(=O)N2[C@H]3CC[C@@H]2c2cnc(-c4ccccc4)nc2C3)cc1", "RP-LC retention time", "s", 1030),
    ("O=C(NC1CC1)c1snc(-c2ccccn2)c1NC(=O)C1CC1", "RP-LC retention time", "s", 720),
    ("CC(C)n1c(=O)c(NCc2ccc(F)cc2)nc2ccncc21", "RP-LC retention time", "s", 669),
    ("Cc1nnc(CNC(=O)CCc2c[nH]c3ccccc23)o1", "RP-LC retention time", "s", 622),
]
